Exercise: for every item that follows, state its recorded TGI.
tested on: A549 NSCLC; experiment: NCI tumour cell line growth inhibition, 48 h
Answers are plain numbers, in µM.

Past entries and their recorded results:
O=C(/C=C\c1ccc(NCc2ccc(C(=O)O)cc2)cc1)CCl; 33
CCC/C(Cl)=N\OC(=O)Nc1ccc(OC(F)(F)F)cc1; 42.3

Please turn your attention to the following entry.
Provide TGI value for the following compound: CC(C)(Cl)C(Br)CCC(=CCCl)CBr (mixture of isomers) 32.8

----------
test system: KM20L2 colon; assay: NCI tumour cell line growth inhibition, 48 h
Would you kindly list TGI for each of these molecules?
One number for each entry, in µM.

Use these answered entries as a reference point.
Nc1ccc2cc3ccc(N)cc3nc2c1; 6.61
CC(C)(C)c1cc(C(O)(C(F)(F)F)C(F)(F)F)c2c(c1)C(C(F)(F)F)(C(F)(F)F)OC(C(C)(C)C)N2 (centres undefined); 11.5
Cc1c(C(=O)/C=C/c2ccccc2)[n+](=O)c2ccccc2n1[O-]; 35.5

// next entry
Tell me its TGI given COc1ccc(C2COc3cc(O)c(O)cc3C2)cc1 (centres undefined) as the entry. 221

----------
system: HCT-15 colon; assay: NCI tumour cell line growth inhibition, 48 h
MEASUREMENT_LABEL: TGI

// below: answered molecules
O=C(CN(c1ccccc1)c1ccccc1)n1nnc2ccccc21; > 100 µM
CCCCON(OC(=O)c1ccc2ccc3cccc4ccc1c2c34)C(C)=O; > 100 µM
Clc1ccc(C=Nc2ccc3c(c2)Cc2ccccc2-3)c(Cl)c1; > 100 µM

Let us move to another entry and its TGI.
Tell me measured TGI for CC(=O)C(=CN1CCN(C(=O)c2ccco2)C1=S)C(C)=O please. 5.55 µM

----------
tested on: HS 578T breast; assay: NCI tumour cell line growth inhibition, 48 h; in the data active = GI50 below about 0.43 µM; inactive = the rest
Use one of these outcomes when replying: active, inactive

Query: recorded result category for C1CCC([PH+](C2CCCCC2)C2CCCCC2[PH+](C2CCCCC2)C2CCCCC2)CC1.O=C(C1[CH-]CCCC1)C1CCCC[N-]1.[Au] (configuration not stated) in this test active

Assay result, entry O=c1c2ccccc2c(=O)c2c1[nH]c1c(-c3ccccc3)c(-c3ccccc3)c(=O)c12 — outcome? inactive

Tell me the assay call for CC1(C)[C@@H](OC(N)=O)[C@H]2O[C@H]2[C@]2(C=O)[C@H]3CC[C@]4(C)[C@@H](c5ccc(=O)oc5)[C@@H](Cl)C[C@]4(O)C3=CC[C@@H]12 please. active

What classification did CCOc1cc(C(C)(C)C)ccc1C1=N[C@@](C)(c2ccc(Cl)cc2)[C@@](C)(c2ccc(Cl)cc2)N1C(=O)N1CCN(CCCS(C)(=O)=O)CC1 end up with in this test? inactive

Could you please tell me the result logged for COc1ccc(C(=O)COc2ccc(/C=C3\COc4ccc(OC)cc4C3=O)cc2)cc1 in this assay? inactive

Could you kindly confirm the outcome this assay logged for O=C1CSC(c2ccc(Cl)cc2Cl)N1c1ccc(F)cc1 (configuration not stated) ? inactive

Please state the recorded outcome for this molecule: CN(CCC#N)c1ccc(/C=C(\C#N)c2ccc(Br)cc2)cc1 inactive

----------
tested on: MDA-N; assay: NCI tumour cell line growth inhibition, 48 h
MEASUREMENT_LABEL: TGI

S=C(Nc1ccc2c(c1)oc1ccccc12)c1cccnc1; > 100 µM
Cc1ccc(O)c(-c2cscn2)c1; > 100 µM
CCn1c(-c2ccc(OC(C)=O)cc2)c(C)c2cc(OC(C)=O)ccc21; 77.9 µM
COc1cc(OC)c(C2c3cc4c(cc3OC(N3CCCC3)C2C)OCO4)c(OC)c1 (stereo not given); 35.4 µM
C=C([C@@]1(O)C[C@H]2[C@H](CCC2(OC)OC)[C@@H]2c3ccccc3O[C@@H]21)[Si](C)(C)C; > 100 µM
NC(CCC(=O)NC(CSCC1C(=O)Nc2ccccc21)C(=O)NCC(=O)O)C(=O)O (stereo not given); 16.7 µM

Please give TGI, item by item, for the list that follows.
1. COc1c(CCl)cc(-c2cc(=O)c3ccccc3s2)cc1CCl
2. CCC(=O)ONC(=O)Cn1ccc([N+](=O)[O-])n1
3. CC(C)CC(O)P(=O)(O)O (stereo not given)
4. COc1ccc2c(cnc3c4cc(OC)c(OC)cc4ccc23)c1

> 100 µM
> 100 µM
> 100 µM
> 100 µM

For each of the compounds below, state TGI.
1. CC(=O)NC1c2ccccc2C(C)(C)C12CCC1(CC2)OCCO1 (stereo not given)
2. COc1nc2nccnc2c(=O)n1C
3. Cc1ccc(S(=O)(=O)NC(=O)N[C@@H](Cc2cnc[nH]2)C(=O)O)cc1
4. CSc1ncnc2c1ncn2CCC#N
5. O=C(O)c1ccc(OCc2nc3cc(C(F)(F)F)ccc3nc2-c2ccccc2)cc1

> 100 µM
> 10 µM
> 100 µM
> 100 µM
> 100 µM

----------
Provide the reported TGI of each item.
system: A549 NSCLC; assay: NCI tumour cell line growth inhibition, 48 h

Cc1cc(S(=O)(=O)Nc2nc3cc(-c4ccc(Cl)cc4)sc3c(=O)n2N)c(S)cc1Cl; > 100 µM
COC(=O)C1=C(C)NC(C)=C(C(=O)OC)C1c1nc2sccn2c1[N+](=O)[O-]; > 100 µM
CC1=NNC(=O)C1C(CC(=O)c1c[nH]c2ccccc12)C(=O)O (stereo not drawn); > 100 µM
O=C(c1ccccc1)C1OC12C(=O)Nc1ccccc12 (stereo not drawn); > 100 µM

Look at each compound and report its TGI.
1. Nc1ccc(S2(c3ccc(N)cc3)C=C(c3ccccc3)C(c3ccccc3)=C2)cc1
2. Cn1c(COC(=O)Nc2ccccc2)c(COC(=O)Nc2ccccc2)c2ccc3cc(Cl)c(Cl)cc3c21

1. > 100 µM
2. > 75 µM

----------
test system: OVCAR-5 ovarian; assay: NCI tumour cell line growth inhibition, 48 h
MEASUREMENT_LABEL: TGI

Below are worked cases with known answers.
O=C1CSC(/C(=N/Nc2ccccc2)c2nc3ccccc3[nH]2)=N1; > 100 µM
C=CC[C@]12C=C(OC)[C@@H](O)[C@](OC)(C(c3cc(OC)c4c(c3)OCO4)[C@H]1C)[C@H]2OC(C)=O (some centres not stated); > 100 µM
CN(C)C(=O)[C@H](O)[C@H](Cc1ccccc1)NC(=O)c1cc2cc(Cl)ccc2[nH]1; 49.9 µM
Cc1nc2sc3ccccc3n2c(=O)c1N=Nc1ccc(Cl)cc1; > 100 µM
O=C(c1ccccc1)C1OC12C(=O)Nc1ccccc12 (configuration not stated); > 100 µM
C=CCOc1ccc(C2(O)c3ccccc3C3=NCCCN32)cc1 (configuration not stated); > 100 µM

Would you mind listing TGI for each of the following compounds?
1. O=C1OC2CCCC[C@@H]2C2C[C@]34CCCCC3[C@@H](C(=O)O4)C12 (some centres not stated)
2. COc1ccc(CC2NCCc3cc(OC)c(OC)cc32)cc1Br (configuration not stated)
3. NNC(=O)CSc1nc2ccccc2c(=O)n1N
4. COc1cc(OC)c(C2c3cc4c(cc3OC(N3CCCC3)C2C)OCO4)c(OC)c1 (configuration not stated)
5. Cc1ccc(S(=O)(=O)C(C#N)c2nc3ccccc3nc2-n2ccnc2)cc1 (configuration not stated)
6. CCCCCCCCCCCCCCCCCCOc1ccccc1CC(=O)OCC[N+]1(C)CCCC1

1: > 100 µM; 2: > 77.7 µM; 3: > 100 µM; 4: 69 µM; 5: > 100 µM; 6: 5.31 µM

Hey, can you go through the list below and give me TGI for every item?
1. COc1ccc(C2OC(c3ccncc3)=NN2C)cc1OC (configuration not stated)
2. Nc1ccc(C(=O)N2CCC[C@H]2CO)c(N)c1

> 100 µM
> 100 µM

Hi there! I need TGI for each item below, if you can.
1. O=C(O)c1ccc(OCc2nc3cc(C(F)(F)F)ccc3nc2-c2ccccc2)cc1
2. N#Cc1cccnc1Cl
3. [N-]=[N+]=NC1=C(c2ccccn2)C(=O)c2cccc3cccc1c23
4. Nc1nc(F)nc2c1ncn2C1OC(CO)C(O)C1O (configuration not stated)
5. CCC/C(Cl)=N\OC(=O)Nc1ccc(OC(F)(F)F)cc1
6. COc1nc2nccnc2c(=O)n1C
7. CN(C)c1ccc(C2SCC(=O)N2c2ccc(Oc3ccc(Cl)cc3)c(Cl)c2)cc1 (configuration not stated)

1. > 100 µM
2. > 100 µM
3. > 100 µM
4. > 100 µM
5. 35.9 µM
6. > 10 µM
7. 87.7 µM

----------
Please go through the items and note down their TGI.
system: SK-MEL-2 melanoma; experiment: NCI tumour cell line growth inhibition, 48 h

Record excerpt, results attached:
O=C1CSC(/C(=N/Nc2ccccc2)c2nc3ccccc3[nH]2)=N1; > 100 µM
[N-]=[N+]=NC1=C(c2ccccn2)C(=O)c2cccc3cccc1c23; > 100 µM
Cc1ccc2[nH]c(O)c(N=Nc3ccc(S(N)(=O)=O)cc3)c2c1; > 25 µM

Next compound, TGI to be filled in.
State measured TGI of the compound COc1ccc(C(=O)COc2ccc(/C=C3\COc4ccc(OC)cc4C3=O)cc2)cc1 with SK-MEL-2 melanoma. > 100 µM
